test system: HCT116; assay: AC50 cell viability (CellTiter-Glo); higher = less potent; conditions: 48 h;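 also: HCT116 colorectal carcinoma cells screened at five concentrations per compound, luminescent viability scaled between DMSO wells and empty wells on each plate, curves fitted per compound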
readout-kind: log10 of AC50 cell viability (log10 of the value in µM)
Hello, just confirming the data are log10 of AC50 cell viability with units of µM.

Field request: log10 of AC50 cell viability | item: "COc1cc(OC)c(/C=C/[S+](=O)([O-])Cc2ccc(OC)c(NCC(=O)[O-])c2)c(OC)c1" -1.18

Field request: log10 of AC50 cell viability | item: "CN1CCN(c2cccc(Nc3nc4c(-c5ccc([S+](C)(=O)[O-])cc5)cccn4n3)c2)CC1" 1.22

Field request: log10 of AC50 cell viability | item: "CONC(=O)Nc1ccc(-c2sc3c(c2CN(C)C)c(=O)n(-c2ccc(OC)nn2)c(=O)n3Cc2c(F)cccc2F)cc1" 1.37

Field request: log10 of AC50 cell viability | item: "COC(=O)Nc1nc2cc(Sc3ccccc3)ccc2[nH]1" 0.02

Field request: log10 of AC50 cell viability | item: "C[C@H]1COCCN1c1cc(C2([S+](=O)([O-])C3CC3)CC2)nc(-c2ccc(NC(=S)NCCO)cc2)n1" 0.87

Field request: log10 of AC50 cell viability | item: N#CC(c1ccnc(NCCc2cccnc2)n1)c1nc2ccccc2s1 (stereo unspecified) 0.92
